tested on: HeLa; test: Cytotoxicity against human HeLa cells after 48 hrs by WST8 assay; type: functional, cell-based
Consider the following compounds and their measured pIC50 readings.
Expect pIC50 as a plain number equal to -log10 of the molar concentration.

Some compounds with recorded pIC50:
[[record]]
smiles_notation = "O[C@@H](c1ccccc1)[C@H]1CO[C@H](c2ccccc2)[C@@H](C/C=C/C2CCCCC2)C1"
val = 5.19

[[record]]
smiles_notation = "COc1cccc([C@H](O)[C@H]2CO[C@H](c3ccc(OC)c(OC)c3)[C@@H](C/C=C/c3ccc(OC)c(OC)c3)C2)c1"
val = 4.67

[[record]]
smiles_notation = "O[C@@H](c1ccccc1)[C@H]1CO[C@H](c2ccccc2)[C@@H](C/C=C/c2ccccn2)C1"
val = 4.47


Input: Tell me reported pIC50 for `COc1ccc([C@@H]2OC[C@H]([C@@H](O)c3ccc(OC)c(OC)c3)C[C@H]2C/C=C/c2ccc(OC)c(OC)c2)cc1` , tested with HeLa.
Output: 4.53

Data provenance is ChEMBL document CHEMBL2413058.
